Biological target: Alpha-2A adrenergic receptor (Homo sapiens, UniProt P08913); further: assay procedure not described here
Sequence (P08913 whole entry): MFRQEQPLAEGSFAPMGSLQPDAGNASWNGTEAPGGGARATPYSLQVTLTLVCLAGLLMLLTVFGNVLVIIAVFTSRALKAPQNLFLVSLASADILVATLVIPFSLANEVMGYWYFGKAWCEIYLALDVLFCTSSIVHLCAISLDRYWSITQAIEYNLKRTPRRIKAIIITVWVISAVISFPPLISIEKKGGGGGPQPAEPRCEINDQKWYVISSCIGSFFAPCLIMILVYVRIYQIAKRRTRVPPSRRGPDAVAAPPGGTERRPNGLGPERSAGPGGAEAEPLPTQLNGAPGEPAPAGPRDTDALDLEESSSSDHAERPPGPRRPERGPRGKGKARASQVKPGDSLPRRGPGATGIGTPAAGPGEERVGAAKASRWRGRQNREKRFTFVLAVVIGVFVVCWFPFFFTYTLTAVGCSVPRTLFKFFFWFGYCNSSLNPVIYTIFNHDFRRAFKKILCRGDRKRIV
Type: functional, cell-based
Exercise: state measured AC50 for each of the compounds provided.

Check out these entries, answers already filled in.
Compound	System Tested	AC50
CC(C)(C(=O)c1cccnc1)c1cccnc1	Alpha-2A adrenergic receptor (Homo sapiens, UniProt P08913)	> 10 µM
CCCCCCC(C)(C)c1cc(O)c2c(c1)OC(C)(C)C1CCC(=O)CC21 (stereo unspecified)	Alpha-2A adrenergic receptor (Homo sapiens, UniProt P08913)	> 30 µM
NC(=O)C[S+]([O-])C(c1ccccc1)c1ccccc1 (stereo unspecified)	Alpha-2A adrenergic receptor (Homo sapiens, UniProt P08913)	> 10 µM
CN[C@@H](C)[C@H](O)c1ccccc1	Alpha-2A adrenergic receptor (Homo sapiens, UniProt P08913)	> 10 µM
COc1ccc2cccc(CCNC(C)=O)c2c1	Alpha-2A adrenergic receptor (Homo sapiens, UniProt P08913)	> 30 µM

get_value(item= NC(CO)C(=O)NNCc1ccc(O)c(O)c1O (stereo unspecified) [BENSERAZIDE] , readout=AC50) returns > 10 µM
